Target: Uridylate kinase (Escherichia coli (strain K12)) (UniProt P0A7E9)
Sequence (whole entry): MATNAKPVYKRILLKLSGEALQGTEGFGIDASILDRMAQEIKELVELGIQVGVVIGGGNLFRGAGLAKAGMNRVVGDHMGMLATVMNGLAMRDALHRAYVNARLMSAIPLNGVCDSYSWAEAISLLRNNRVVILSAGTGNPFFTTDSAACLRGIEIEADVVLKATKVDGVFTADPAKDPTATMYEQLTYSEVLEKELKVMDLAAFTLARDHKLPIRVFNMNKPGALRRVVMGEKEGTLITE
Assay: Inhibition of recombinant Escherichia coli UMP kinase pyrH catalyzed UMP phosphorylation in presence of GTP and ATP incubated for 1 hr by luminescence based assay
Active and inactive are the calls of the source. How the calls were made is not given here.

>  <compound>
O=C(c1ccc2c(c1)C1C=CCC1C(c1ccc(Br)cc1)N2)N1CCCCCC1 (stereo not drawn)

>  <inhibition>
inactive

$$$$
>  <compound>
NC1=C/C(=C2\Nc3cc(N)ccc3S2)C(=O)C=C1

>  <inhibition>
inactive

$$$$
>  <compound>
COc1cc(/C=C2/SC(=S)N(C3CCCCC3)C2=O)cc(Cl)c1O

>  <inhibition>
inactive

$$$$
>  <compound>
COc1ccc(-n2cccc2/C=C2\C(=O)NC(=S)N(c3ccc(C)c(C)c3)C2=O)cc1

>  <inhibition>
inactive

$$$$
>  <compound>
COC(=O)c1cccc2c1NC(c1ccc([N+](=O)[O-])cc1)C1CC=CC21 (stereo not drawn)

>  <inhibition>
inactive

$$$$
>  <compound>
O=C1NC(=S)N(c2ccccc2)C(=O)/C1=C/c1ccc(-c2cc([N+](=O)[O-])ccc2Cl)o1

>  <inhibition>
inactive

$$$$
>  <compound>
Cc1cc(/C=C2\C(=O)NC(=S)N(c3ccc(Cl)cc3)C2=O)c(C)n1-c1ccc([N+](=O)[O-])cc1

>  <inhibition>
inactive

$$$$
>  <compound>
COc1ccc(OC)c(-c2cn3c(CCN(Cc4ccco4)S(=O)(=O)c4ccc5ccccc5c4)csc3n2)c1

>  <inhibition>
inactive

$$$$
>  <compound>
O=C1/C(=C/c2ccc(-c3ccc(Br)cc3)o2)SC(=S)N1Cc1ccco1

>  <inhibition>
inactive

$$$$
>  <compound>
O=C1N=C2C=CC(I)=CC2C1NNc1cccc2cccnc12 (stereo not drawn)

>  <inhibition>
inactive

$$$$
>  <compound>
Cc1ccc2nc(Nc3nc(O)c(CCC(C)C)c(=O)[nH]3)nc(C)c2c1

>  <inhibition>
inactive

$$$$
>  <compound>
N#CC1=C(c2ccco2)CC(c2ccccc2)NC1=S (stereo not drawn)

>  <inhibition>
inactive

$$$$
>  <compound>
CCN(CC)c1ccc2cc(C(N)=O)/c(=N/c3cccc4ccccc34)oc2c1

>  <inhibition>
inactive

$$$$
>  <compound>
CCOc1ccc(N2C(=O)/C(=C/c3cccn3-c3ccc(Br)cc3)C(=O)NC2=S)c(F)c1

>  <inhibition>
inactive

$$$$
>  <compound>
O=C(CSc1nc2c([nH]c3ccccc32)c(=O)n1-c1ccccc1)N1CCN(c2ccccc2)CC1

>  <inhibition>
inactive

$$$$
>  <compound>
O=C(Oc1ccc2ccccc2c1)c1ccc2c(c1)C1C=CCC1C(C(=O)O)N2 (stereo not drawn)

>  <inhibition>
inactive

$$$$
>  <compound>
O=C1NC(=S)NC(=O)C1=Cc1ccc(-c2cc(Cl)ccc2Cl)o1

>  <inhibition>
inactive

$$$$
>  <compound>
Cc1cc(I)cc2c1NC(c1ccc([N+](=O)[O-])cc1)C1CC=CC21 (stereo not drawn)

>  <inhibition>
inactive

$$$$
>  <compound>
O=C1NC(=O)N(c2ccc(Cl)cc2)C(=O)/C1=C/c1cccn1-c1ccccc1

>  <inhibition>
inactive

$$$$
>  <compound>
COc1cc(C2Nc3cccc4cccc(c34)N2)cc(I)c1O

>  <inhibition>
inactive

$$$$
>  <compound>
Cc1ccc(-c2csc3nc(SCc4c(C)noc4C)n(-c4ccccc4)c(=O)c23)o1

>  <inhibition>
inactive

$$$$
>  <compound>
O=C1NC(=S)N(c2ccc(Br)cc2)C(=O)/C1=C/c1ccc(-c2ccc(F)cc2)o1

>  <inhibition>
inactive

$$$$
>  <compound>
C=C[S+]([O-])c1sc(Cl)c(N2CCN(c3c(Cl)sc([S+]([O-])C=C)c3[N+](=O)[O-])CC2)c1[N+](=O)[O-] (stereo not drawn)

>  <inhibition>
inactive

$$$$
>  <compound>
O=C1NC(=S)NC(=O)C1=Cc1ccc(-c2ccc(Br)cc2)o1

>  <inhibition>
inactive

$$$$
>  <compound>
C=CCN(CC(=O)N(Cc1ccc2c(c1)OCO2)Cc1coc2ccc(Cl)cc2c1=O)C(=O)c1cccc2ccccc12

>  <inhibition>
inactive

$$$$
>  <compound>
CC(C)(C)C(=O)Nc1ccc(C(=O)Nc2ccc(-c3nc4ncccc4o3)cc2)cc1

>  <inhibition>
inactive

$$$$
>  <compound>
O=C1N=C(Nc2cccc(Cl)c2Cl)S/C1=C/c1ccc(OCc2ccc(C(=O)O)cc2)c(Br)c1

>  <inhibition>
inactive

$$$$
>  <compound>
COc1ccc(-n2cccc2/C=C2\C(=O)NC(=S)N(c3ccc(Br)cc3)C2=O)cc1

>  <inhibition>
inactive

$$$$
>  <compound>
N=C1NC(=O)/C(=C/C=C/c2ccc([N+](=O)[O-])o2)S1

>  <inhibition>
inactive

$$$$
>  <compound>
Cc1ccc(CNC(=O)c2cc(-c3ccc(Br)s3)nc3ccccc23)o1

>  <inhibition>
inactive

$$$$
>  <compound>
Cc1ccc(C)c(-c2nn(-c3ccccc3)cc2C=C2C(=O)NC(=O)NC2=O)c1

>  <inhibition>
inactive

$$$$
>  <compound>
N#CC1=C(N)n2c(s/c(=C\c3cc(Br)ccc3O)c2=O)=C(C#N)C1c1cc(Br)ccc1O (stereo not drawn)

>  <inhibition>
inactive

$$$$
>  <compound>
C#CCn1cc(/C=C2\C(=O)NC(=S)N(c3ccc(Br)cc3)C2=O)c2ccccc21

>  <inhibition>
inactive

$$$$
>  <compound>
O=S(=O)(c1cccc2cccnc12)N(CCc1csc2nc(-c3ccc4ccccc4c3)cn12)Cc1ccco1

>  <inhibition>
inactive

$$$$
>  <compound>
COc1ccc(C(c2cc(C(C)(C)C)c(O)c(C(C)(C)C)c2)N2CCOCC2)cc1 (stereo not drawn)

>  <inhibition>
inactive

$$$$
>  <compound>
O=C(c1ccc(C(F)(F)F)cc1)N(CCc1csc2nc(-c3ccc4ccccc4c3)cn12)Cc1ccco1

>  <inhibition>
inactive

$$$$
>  <compound>
Nc1nc(SCc2nnc(Nc3ccccc3)s2)nc2sc3c(c12)CCC3

>  <inhibition>
inactive

$$$$
>  <compound>
Cc1ccc2ncc(C(CC(=O)N3CCN(C(c4ccccc4)c4ccccc4)CC3)c3ccc4c(c3)OCO4)n2c1 (stereo not drawn)

>  <inhibition>
inactive

$$$$
